- System: SF-295 CNS
- Assay Details: NCI tumour cell line growth inhibition, 48 h
Outcome Measure: TGI

# annotated cases, reported TGI shown
compound=NCCCNc1ccc2c(c1)[n+]([O-])c1ccccc1[n+]2[O-] assay_value="> 100 µM"
compound="O=C(O)C1C2C=CC(O2)C1C(=O)Nc1ccccc1 (centres undefined)" assay_value="> 100 µM"
compound="CCOC(=O)C(NNS(=O)(=O)c1ccc(C)cc1)S(=O)(=O)C(F)(F)C(F)(F)C(F)(F)C(F)(F)F (centres undefined)" assay_value="> 100 µM"
compound=COc1ccc(C)c2c1N[C@](C)([C@]1(C)Nc3c(OC)ccc(C)c3C1=O)C2=O assay_value="> 100 µM"
compound="C=C(C)C1CC=C(C(=O)O)CC1 (centres undefined)" assay_value="> 5000 µM"
compound=CCOC(=O)Cn1c(=O)c2nc(SC)sc2n(-c2ccc(C)cc2)c1=S assay_value="> 100 µM"

Incoming: // returns reported TGI for input CCOC(=O)Cc1ccc(Nc2nc3cc(C(F)(F)F)ccc3nc2C(=O)OCC)cc1
Outgoing: > 100 µM

Incoming: Also CN(C)c1ccc(N=Nc2cccc3ccoc23)cc1 , if possible.
Outgoing: > 100 µM

Incoming: Thanks! And COC(=O)/C=C\c1ccc2c(c1)CC1(C2)Cc2ccc(/C=C/C(=O)OC)cc2C1 (centres undefined) ?
Outgoing: > 31.6 µM
